Test system: Fusarium culmorum
Assay: microbe, parasite or virus in culture
Format: cell-based
Conditions: read-out: disease control (inhibition of growth determined visually)
Provide the reported inhibition at 200 ppm of each item.

Short answer for COC(COC(=O)c1cc2c(cc1Cl)COB2O)OC : inhibition at 200 ppm was ≥ 80%

Short answer for CC#CCOC(=O)c1ccc2c(c1)B(O)OC2 : inhibition at 200 ppm was ≥ 80%

Short answer for O=C(OCC1CCC1)c1cc2c(cc1F)COB2O : inhibition at 200 ppm was ≥ 80%

Short answer for O=C(OCCF)c1cc2c(cc1Cl)COB2O : inhibition at 200 ppm was ≥ 80%

Short answer for COc1ccc(OCCOC(=O)c2ccc3c(c2)B(O)OC3)cc1 : inhibition at 200 ppm was ≥ 80%

Short answer for Cc1cccc(Cl)c1NC(=O)c1cc2c(cc1F)COB2O : inhibition at 200 ppm was ≥ 80%

Short answer for COC(=O)COC(=O)c1cc2c(cc1Cl)COB2O : inhibition at 200 ppm was ≥ 80%

Short answer for C=CCCOC(=O)c1ccc2c(c1)B(O)OC2 : inhibition at 200 ppm was ≥ 80%

Short answer for O=C(OCc1ccco1)c1ccc2c(c1)B(O)OC2 : inhibition at 200 ppm was ≥ 80%

Short answer for O=C(OCc1ccsc1)c1ccc2c(c1)B(O)OC2 : inhibition at 200 ppm was ≥ 80%

Short answer for O=C(OC1CSC1)c1ccc2c(c1)B(O)OC2 : inhibition at 200 ppm was ≥ 80%

Short answer for O=C(OCc1cccc(F)c1)c1ccc2c(c1)B(O)OC2 : inhibition at 200 ppm was ≥ 80%

Short answer for C=CCCOC(=O)c1cc2c(cc1F)COB2O : inhibition at 200 ppm was ≥ 80%

Short answer for O=C(OCC1CC1)c1cc2c(cc1Cl)COB2O : inhibition at 200 ppm was ≥ 80%

Short answer for O=C(OC1CCC1)c1ccc2c(c1)B(O)OC2 : inhibition at 200 ppm was ≥ 80%

Short answer for O=C(OCC(Cl)(Cl)Cl)c1cc2c(cc1Cl)COB2O : inhibition at 200 ppm was ≥ 80%

Short answer for O=C(OCC#Cc1ccccc1)c1cc2c(cc1F)COB2O : inhibition at 200 ppm was ≥ 80%

Short answer for C=CCOC(=O)c1cc2c(cc1Cl)COB2O : inhibition at 200 ppm was ≥ 80%

Short answer for COC(=O)c1cc2c(cc1C)COB2O : inhibition at 200 ppm was ≥ 80%

Short answer for COC(=O)C#CCOC(=O)c1cc2c(cc1F)COB2O : inhibition at 200 ppm was ≥ 80%

Short answer for O=C(OCCOc1ccc(Cl)cc1)c1cc2c(cc1Cl)COB2O : inhibition at 200 ppm was ≥ 80%

Short answer for CC(C)c1ccc(NC(=O)c2cc3c(cc2F)COB3O)cc1 : inhibition at 200 ppm was ≥ 80%

Short answer for C#CCCOC(=O)c1cc2c(cc1Cl)COB2O : inhibition at 200 ppm was ≥ 80%

Short answer for C[Si](C)(C)COC(=O)c1cc2c(cc1F)COB2O : inhibition at 200 ppm was ≥ 80%

Short answer for C[Si](C)(C)C#CCOC(=O)c1cc2c(cc1F)COB2O : inhibition at 200 ppm was ≥ 80%

Short answer for O=C(OCC1CCC1)c1ccc2c(c1)B(O)OC2 : inhibition at 200 ppm was ≥ 80%

Short answer for CCC#CCOC(=O)c1ccc2c(c1)B(O)OC2 : inhibition at 200 ppm was ≥ 80%

Short answer for O=C(OC1CCC1)c1cc2c(cc1Cl)COB2O : inhibition at 200 ppm was ≥ 80%

Short answer for O=C(OCC#Cc1ccccc1)c1cc2c(cc1Cl)COB2O : inhibition at 200 ppm was ≥ 80%

Short answer for O=C(OCC#Cc1ccccc1)c1ccc2c(c1)B(O)OC2 : inhibition at 200 ppm was ≥ 80%

Short answer for C#CCOC(=O)c1cc2c(cc1F)COB2O : inhibition at 200 ppm was ≥ 80%

Short answer for C=CCCOC(=O)c1cc2c(cc1Cl)COB2O : inhibition at 200 ppm was ≥ 80%

Short answer for O=C(OCCc1c(Cl)cccc1Cl)c1ccc2c(c1)B(O)OC2 : inhibition at 200 ppm was ≥ 80%

Short answer for Cc1cccc(Cl)c1NC(=O)c1cc2c(cc1Cl)COB2O : inhibition at 200 ppm was ≥ 80%

Short answer for COC(=O)C#CCOC(=O)c1ccc2c(c1)B(O)OC2 : inhibition at 200 ppm was ≥ 80%

Short answer for C#CCCCOC(=O)c1ccc2c(c1)B(O)OC2 : inhibition at 200 ppm was ≥ 80%

Short answer for COC(=O)COC(=O)c1cc2c(cc1F)COB2O : inhibition at 200 ppm was ≥ 80%

Short answer for O=C(OCc1ccsc1)c1cc2c(cc1F)COB2O : inhibition at 200 ppm was ≥ 80%

Short answer for CCC#CCOC(=O)c1cc2c(cc1F)COB2O : inhibition at 200 ppm was ≥ 80%

Short answer for O=C(OCCc1c(Cl)cccc1Cl)c1cc2c(cc1F)COB2O : inhibition at 200 ppm was ≥ 80%
